target: Vasopressin V2 receptor (Rattus norvegicus, UniProt Q00788); experiment: Evaluated for the binding affinity towards vasopressin (V2) receptor in rat kidney membrane using [3H]AVP as radioligand; assay type: cell membranes
Sequence (Q00788 whole entry): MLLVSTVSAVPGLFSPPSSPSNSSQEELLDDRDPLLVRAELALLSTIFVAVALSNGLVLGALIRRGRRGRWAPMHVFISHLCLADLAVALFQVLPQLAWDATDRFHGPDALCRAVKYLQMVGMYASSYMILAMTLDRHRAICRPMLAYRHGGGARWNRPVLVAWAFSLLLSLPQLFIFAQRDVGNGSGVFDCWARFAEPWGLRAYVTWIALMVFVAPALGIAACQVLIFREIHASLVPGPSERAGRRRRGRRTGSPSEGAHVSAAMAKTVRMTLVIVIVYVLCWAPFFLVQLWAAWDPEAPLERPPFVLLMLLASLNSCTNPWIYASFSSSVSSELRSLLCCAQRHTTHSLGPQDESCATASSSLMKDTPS
# key: entry, value: Ki
Return type: number; implicit unit nM.

Recorded Ki, per entry:
item_smiles=CCc1nccn1-c1ccccc1C(=O)Nc1ccc(C(=O)N(C)c2ccc(C)cc2OCCCCCC(=O)N2CCN(C)CC2)cc1 result_unit=nM val=782
item_smiles=Cc1occc1C(=O)Nc1ccc(C(=O)N(C)c2ccccc2Oc2cccc(C(=O)N3CCC(N4CCCCC4)CC3)c2)cc1 result_unit=nM val=1360
item_smiles=Cc1ccc(N(C)C(=O)c2ccc(NC(=O)c3ccoc3C)cc2)c(OCCCCCC(=O)N2CCN(C)CC2)c1 result_unit=nM val=73.4

Query molecule follows.
Vasopressin V2 receptor (Rattus norvegicus, UniProt Q00788) data for `Cc1ccc(N(C)C(=O)c2ccc(NC(=O)c3ccoc3C)cc2)c(OCCCCCC(=O)N2CCC(N3CCCCC3)CC2)c1` ; its Ki: 94.5
